Conditions: in isopropanol, 280.65 K
property measured: solubility (mole fraction)
Give the value as a plain number.

What solubility (mole fraction) value was documented for this compound, Clc1cc(Cl)cc(Cl)c1 ?
0.0225

---

Settings: in acetone, 308.15 K
property measured: solubility (mole fraction)
Give the value as a plain number.

What solubility (mole fraction) value was documented for this molecule, Clc1cc(Cl)cc(Cl)c1 ?
0.171

---

Details: in isobutanol, 303.15 K
property measured: solubility (mole fraction)

What solubility (mole fraction) value was documented for this compound, Clc1cc(Cl)cc(Cl)c1 ?
0.117

---

Details: in cyclohexane, 313.15 K
property measured: solubility (mole fraction)

What solubility (mole fraction) value was documented for this compound, Clc1cc(Cl)cc(Cl)c1 ?
0.528

FYI, the data here is from BigSolDB 2.1.
